system: COLO 205 colon; experiment: NCI tumour cell line growth inhibition, 48 h; in the data active means GI50 below about 0.43 µM; inactive means the rest
Answer with one of the outcomes given here: active, inactive

Solved cases below.
Query string: Please state the recorded outcome for this compound: C/C(=C\c1cc(C(F)(F)F)n(-c2ccc(N)cc2)n1)[C@@H]1C[C@@H]2O[C@]2(C)CCC[C@H](C)[C@H](O)[C@@H](C)C(=O)C(C)(C)[C@@H](O)CC(=O)O1
Result string: active

Query string: Try the compound Clc1ccccc1CNc1c2ccccc2nc2ccccc12
Result string: inactive

Query string: Try the compound COc1cc(-c2csc(NC(=O)Nc3ccc(C(F)(F)F)cc3)n2)cc(OC)c1OC
Result string: inactive

Query string: Try the compound O=C1C=CC(=O)N1c1cccc(N2C(=O)C=CC2=O)c1
Result string: inactive

Query string: Try the compound CC(=O)O[C@H]1[C@@H]2OC(=O)C(CSc3ccccc3)[C@@H]2C[C@H]2O[C@]2(C)CC/C=C(\C)CCC[C@@H]1C (some centres undefined)
Result string: inactive

Query string: Try the compound O=C(Nc1cccc(Cl)c1)c1cccc(NC2=C(Cl)C(=O)N(Cc3ccccc3)C2=O)c1
Result string: inactive

Query string: Try the compound O=C(Nc1cccc(-c2ccc(Cl)c(C(F)(F)F)c2)c1)C1CCN(Cc2cccc3cccnc23)CC1
Result string: inactive

Query string: Try the compound CC1(N)CCN(c2cnc(-c3cccc(Cl)c3Cl)c(N)n2)CC1
Result string: inactive

Here is another compound to look at.
Query string: Please state the recorded outcome for this compound: O=[N+]([O-])c1cc(C(F)(F)F)ccc1Sc1ccc(C(F)(F)F)cc1[N+](=O)[O-]
Result string: inactive
